# experiment: MTT reduction cytotoxicity assay
# Format: cell-based, human
# recorded-conditions: human, AGS cells (human gastric adenocarcinoma), 50 μg/mL, 24 h, read-out: mean percentage of viable cells ± SD
reported-endpoint: viability at 24 h, 50 μg/mL (%)

>  <compound>
C[C@@H]1CC(=O)O[C@H](c2cccc3ccccc23)[C@H]1Cl (relative stereo) [5a]

>  <unit-symbol>
%

>  <data-value>
15

$$$$
>  <compound>
CC1CC(=O)OC(c2cccc3ccccc23)C1Br (stereo not shown) [7a]

>  <unit-symbol>
%

>  <data-value>
8

$$$$
>  <compound>
CC1CC(=O)OC(c2ccccc2)C1I (stereo not shown) [9b]

>  <unit-symbol>
%

>  <data-value>
8

$$$$
>  <compound>
C[C@@H]1CC(=O)O[C@@H]1[C@@H](O)c1cccc2ccccc12 [13a]

>  <unit-symbol>
%

>  <data-value>
8

$$$$
>  <compound>
CC1CC(=O)OC(c2ccccc2)C1Cl (stereo not shown) [5b]

>  <unit-symbol>
%

>  <data-value>
8

$$$$
>  <compound>
CC1CC(=O)OC(c2ccccc2)C1Br (stereo not shown) [7b]

>  <unit-symbol>
%

>  <data-value>
10

$$$$
>  <compound>
C[C@@H]1CC(=O)O[C@H]1[C@@H](O)c1cccc2ccccc12 (mixture of isomers) [12a]

>  <unit-symbol>
%

>  <data-value>
9

$$$$

* * *

>  <compound>
C[C@@H]1CC(=O)O[C@H]1C(O)c1ccccc1 (relative stereo) [12b]

>  <melting point>
86 to 87 °C

$$$$
>  <compound>
CC1CC(=O)OC(c2ccccc2)C1I (stereo not drawn)

>  <melting point>
107 to 108 °C

$$$$
>  <compound>
C[C@@H]1CC(=O)O[C@@H]1C(I)c1ccccc1 (relative stereo) [11b]

>  <melting point>
86 to 87 °C

$$$$
>  <compound>
C[C@@H]1CC(=O)O[C@@H]1C(I)c1ccc(F)cc1 (relative stereo) [11c]

>  <melting point>
118 to 119 °C

$$$$
>  <compound>
CC1CC(=O)OC(c2cccc3ccccc23)C1Br (stereo not drawn)

>  <melting point>
197 to 198 °C

$$$$
>  <compound>
C[C@@H]1CC(=O)O[C@@H]1C(O)c1ccc(F)cc1 (relative stereo) [13c]

>  <melting point>
118 to 119 °C

$$$$
>  <compound>
C[C@@H]1CC(=O)O[C@H]1C(O)c1ccc(F)cc1 (relative stereo) [12c]

>  <melting point>
118 to 119 °C

$$$$
>  <compound>
CC1CC(=O)OC(c2ccccc2)C1Br (stereo not drawn)

>  <melting point>
111 to 112 °C

$$$$
>  <compound>
C[C@@H]1CC(=O)O[C@H](c2cccc3ccccc23)[C@H]1Cl (relative stereo)

>  <melting point>
157 to 158 °C

$$$$
>  <compound>
C[C@@H]1CC(=O)O[C@@H]1[C@@H](O)c1cccc2ccccc12 [13a]

>  <melting point>
123 to 124 °C

$$$$
>  <compound>
CC1CC(=O)OC(c2ccccc2)C1Cl (stereo not drawn)

>  <melting point>
105 to 106.5 °C

$$$$
>  <compound>
C[C@@H]1CC(=O)O[C@@H]1C(O)c1ccccc1 (relative stereo) [13b]

>  <melting point>
89 to 91 °C

$$$$
